Reference for the values: the NIST ThermoML archive (doi:10.1021/je100253m)

details: 343.15 K, Ring tensiometer
observed.property: surface tension liquid-gas (mN/m)
Hi! Could you send only the number? It should be in mN/m, unit omitted.

[Q] Tell me its surface tension liquid-gas given CCCCn1cc[n+](C)c1C.O=S(=O)([N-]S(=O)(=O)C(F)(F)F)C(F)(F)F as the entry.
[A] 28.74

[Q] Tell me its surface tension liquid-gas given CCC[n+]1cccc(C)c1.O=S(=O)([N-]S(=O)(=O)C(F)(F)F)C(F)(F)F as the entry.
[A] 33.55

[Q] Tell me its surface tension liquid-gas given CCCC[N+]1(C)CCCC1.O=S(=O)([N-]S(=O)(=O)C(F)(F)F)C(F)(F)F as the entry.
[A] 31.96

[Q] Tell me its surface tension liquid-gas given CCC[N+]1(C)CCCC1.O=S(=O)([N-]S(=O)(=O)C(F)(F)F)C(F)(F)F as the entry.
[A] 29.97

[Q] Tell me its surface tension liquid-gas given CCn1cc[n+](CC)c1.O=S(=O)([N-]S(=O)(=O)C(F)(F)F)C(F)(F)F [1,3-diethylimidazolium bis[(trifluoromethyl)sulfonyl]imide] as the entry.
[A] 33.7

[Q] Tell me its surface tension liquid-gas given CCCCCCCCCCCCCC[P+](CCCCCC)(CCCCCC)CCCCCC.O=S(=O)([N-]S(=O)(=O)C(F)(F)F)C(F)(F)F as the entry.
[A] 27.59
